biological target: (Homo sapiens, UniProt P08069); construct: human IGF1R kinase domain residues M954-C1367; made in house; host or cells: baculovirus expression (insect cells); assay: IGF1R kinase assay (LCCA), IGF 0P; format: biochemical; details: IGF1R kinase LCCA assay
Sequence (P08069 954-1367): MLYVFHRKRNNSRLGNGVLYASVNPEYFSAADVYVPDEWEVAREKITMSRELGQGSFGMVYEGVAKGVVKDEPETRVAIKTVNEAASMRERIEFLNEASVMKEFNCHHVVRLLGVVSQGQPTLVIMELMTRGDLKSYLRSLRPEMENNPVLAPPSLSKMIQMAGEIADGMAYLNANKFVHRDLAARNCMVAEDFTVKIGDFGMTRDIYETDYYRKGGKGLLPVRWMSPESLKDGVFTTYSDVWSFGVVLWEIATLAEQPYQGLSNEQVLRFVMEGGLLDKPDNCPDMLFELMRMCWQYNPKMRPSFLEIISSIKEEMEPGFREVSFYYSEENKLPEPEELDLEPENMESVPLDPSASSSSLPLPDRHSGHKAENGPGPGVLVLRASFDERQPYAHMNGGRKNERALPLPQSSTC
pIC50: −log10 of the molar value.
property-name: pIC50

The examples below pair each entry with its known result.
Clc1ccc(-c2ccc(CNc3ncc(Br)c(Nc4cc(C5CC5)n[nH]4)n3)s2)cc1	< 5.30
Cc1cc(Nc2cc(C3CC3)n[nH]2)nc(Nc2ccc3cc(C(=O)NCCN4CCCC4)sc3c2)n1	5.30 to 6.30
Cc1cnc(Nc2ccc(N(C)C)cc2)nc1Nc1cc(C2CC2)n[nH]1	5.30 to 6.30

Give the measured pIC50 of "Cc1cc(Nc2cc(C3CC3)[nH]n2)nc(NCc2cc(-c3ccccn3)no2)n1" . 6.30 to 7.30

Looking for the measured pIC50 of "CCN(CC)CCCNc1cc(Nc2cc(C3CC3)n[nH]2)nc(Nc2ccccc2Cl)n1" , can you help? 5.30 to 6.30

// pIC50 lookup, key: "Cc1cc(Nc2cc(C(C)C)[nH]n2)nc(NCc2cc(-c3cccc(Cl)c3)no2)n1" 6.30 to 7.30

Return reported pIC50; argument: Brc1cnc(NCC2CCCO2)nc1Nc1cc(C2CC2)n[nH]1 (centres unmarked) < 5.30

Consider the molecule shown here: "Cc1cc(Nc2cc(C3CC3)[nH]n2)nc(NCc2nc(-c3ccccc3)cs2)n1" What is its recorded pIC50? 5.30 to 6.30

Entry "O=C(Nc1ncc(Br)c(Nc2cc(C3CC3)[nH]n2)n1)c1ccccc1Cl" has what pIC50? < 5.30

Suppose we examine the molecule "Clc1ccc(CCNc2ncc(Br)c(Nc3cc(C4CC4)n[nH]3)n2)cc1" ; what pIC50 value has been reported? < 5.30

Need pIC50, item "CN1CCN(C(=O)c2ccc(Nc3ncc(Br)c(Nc4cc(C5CC5)n[nH]4)n3)cc2)CC1" 5.30 to 6.30

Record request: pIC50 value, item "CC(C)(C)OC(=O)N1CCC(Nc2ncc(Br)c(Nc3cc(C4CC4)[nH]n3)n2)CC1" < 5.30

Give its pIC50 value. Item: "Cc1cc(NCc2ccccc2)nc(NCc2cc(-c3ccccc3)no2)n1" < 5.30

Tell me the measured pIC50 of Nc1ncnc2c1c(-c1ccc(NC(=O)C3(C(=O)Nc4ccc(F)cc4)CC3)cc1)cn2CC1CC2CN(C(=O)OCc3ccccc3)CC2C1 (centres unmarked) , please. < 5.30

Which pIC50 reading was recorded for the molecule "FC(F)(F)c1cc(Br)cc(Nc2ncc(Br)c(Nc3cc(C4CC4)n[nH]3)n2)c1" ? < 5.30

Need pIC50 of "Brc1cnc(NCc2nccs2)nc1Nc1cc(C2CC2)[nH]n1" , thanks. 5.30 to 6.30

What does the record list as pIC50 for "N#Cc1cccc(Nc2ncc(Br)c(Nc3cc(C4CC4)n[nH]3)n2)c1" ? 5.30 to 6.30

* * *

target: (Homo sapiens, UniProt P08069); construct: human IGF1R kinase domain residues M954-C1367; made in house; host or cells: baculovirus expression (insect cells); assay: IGF1R kinase assay (LCCA), IGF 0P; type: biochemical; settings: IGF1R kinase LCCA assay
property-name: IC50

CN1CCC(NC(=O)c2ccc(Nc3nccc(Nc4cc(C5CC5)n[nH]4)n3)cc2)CC1	0.5 to 5 µM
Cc1cc(Nc2cc(C3CC3)[nH]n2)nc(NCc2cc(C(C)C)no2)n1	0.5 to 5 µM
c1cc(Nc2cc(C3CC3)[nH]n2)nc(NCc2cc(C3CCCCC3)no2)n1	0.5 to 5 µM

Note: attention shifts to another entry.
What value of measured IC50 is listed for "Brc1cnc(Nc2ccc(N3CCNCC3)cc2)nc1Nc1cc(C2CC2)n[nH]1" ? > 5 µM
